test system: HCC 2998; experiment: Growth inhibition of human HCC 2998 cells measured after 48 hrs by sulforhodamine B assay; format: functional
assay.endpoint: GI50 (nM)

(a) CC(C)C[C@@H]1NC(=O)[C@H]2CSSCC/C=C/[C@H](CC(=O)N[C@H](C(C)C)C(=O)N2)OC(=O)CNC1=O
(b) CC(C)C[C@H]1NC(=O)[C@H]2CSSCC/C=C/[C@H](CC(=O)N[C@H](C(C)C)C(=O)N2)OC(=O)CNC1=O
(c) CC(C)[C@H]1NC(=O)C[C@H]2/C=C/CCSSC[C@@H](NC1=O)C(=O)N[C@H](Cc1ccccc1)C(=O)NCC(=O)O2
Sort the entries above numerically by GI50, high end first. Arrange the labels as the request states and list them.
a, b, c
(a: 1300 nM, b: 27 nM, c: 3.2 nM)

(P) CC(C)[C@H]1NC(=O)C[C@H]2/C=C/CCSSC[C@@H](NC1=O)C(=O)N[C@@H](Cc1ccccc1)C(=O)NCC(=O)O2
(Q) C/C=C1\NC(=O)[C@H]2CSSCC/C=C/[C@H](CC(=O)N[C@H](C(C)C)C(=O)N2)OC(=O)CNC1=O
(R) CC(C)[C@H]1NC(=O)C[C@H]2/C=C/CCSSC[C@@H](NC1=O)C(=O)NCC(=O)NCC(=O)O2
Order the records, beginning with the lowest GI50 and ending with the highest. Provide your answer as the labels ordered per the instruction.
Q, P, R

---

system: MKN-7; experiment: Growth inhibition of human MKN-7 cells measured after 48 hrs by sulforhodamine B assay; format: functional
assay.endpoint: GI50 (µM)

Here is how some molecules turned out for GI50.
- CC(C)[C@H]1NC(=O)C[C@H]2/C=C/CCSSC[C@@H](NC1=O)C(=O)N[C@H](Cc1ccccc1)C(=O)NCC(=O)O2: 0.035
- CC(C)[C@H]1NC(=O)C[C@H]2/C=C/CCSSC[C@@H](NC1=O)C(=O)N[C@@H](Cc1ccccc1)C(=O)NCC(=O)O2: 1.9
- C/C=C1\NC(=O)[C@H]2CSSCC/C=C/[C@H](CC(=O)N[C@H](C(C)C)C(=O)N2)OC(=O)CNC1=O: 0.38

(P) CC(C)C[C@@H]1NC(=O)[C@H]2CSSCC/C=C/[C@H](CC(=O)N[C@H](C(C)C)C(=O)N2)OC(=O)CNC1=O
(Q) CC(C)[C@H]1NC(=O)C[C@H]2/C=C/CCSSC[C@@H](NC1=O)C(=O)NCC(=O)NCC(=O)O2
Which value of GI50 is numerically greater: that of P or that of Q ? Answer format: the label of the selected item.
Q
(Q: 47 µM, P: 1.8 µM)

---

system: DU-145; assay: Growth inhibition of human DU-145 cells measured after 48 hrs by sulforhodamine B assay; format: functional
assay.endpoint: GI50 (nM)

• C/C=C1\NC(=O)[C@H]2CSSCC/C=C/[C@H](CC(=O)N[C@H](C(C)C)C(=O)N2)OC(=O)CNC1=O = 39

(A) CC(C)C[C@@H]1NC(=O)[C@H]2CSSCC/C=C/[C@H](CC(=O)N[C@H](C(C)C)C(=O)N2)OC(=O)CNC1=O
(B) CC(C)[C@H]1NC(=O)C[C@H]2/C=C/CCSSC[C@@H](NC1=O)C(=O)NCC(=O)NCC(=O)O2
(C) CC(C)C[C@H]1NC(=O)[C@H]2CSSCC/C=C/[C@H](CC(=O)N[C@H](C(C)C)C(=O)N2)OC(=O)CNC1=O
(D) CC(C)[C@H]1NC(=O)C[C@H]2/C=C/CCSSC[C@@H](NC1=O)C(=O)N[C@H](Cc1ccccc1)C(=O)NCC(=O)O2
Endpoint returns the given molecules ordered by ascending GI50. Sort and list the labels as requested.
D, C, A, B

---

tested on: U-251; experiment: Growth inhibition of human U-251 cells measured after 48 hrs by sulforhodamine B assay; type: functional
assay.endpoint: GI50 (nM)

• CC(C)[C@H]1NC(=O)C[C@H]2/C=C/CCSSC[C@@H](NC1=O)C(=O)N[C@@H](C)C(=O)NCC(=O)O2 = 17000

(a) CC(C)C[C@H]1NC(=O)[C@H]2CSSCC/C=C/[C@H](CC(=O)N[C@H](C(C)C)C(=O)N2)OC(=O)CNC1=O
(b) CC(C)[C@H]1NC(=O)C[C@H]2/C=C/CCSSC[C@@H](NC1=O)C(=O)N[C@@H](Cc1ccccc1)C(=O)NCC(=O)O2
(c) C/C=C1\NC(=O)[C@H]2CSSCC/C=C/[C@H](CC(=O)N[C@H](C(C)C)C(=O)N2)OC(=O)CNC1=O
Hey, can you sort those molecules up there by GI50, smallest first? I'd appreciate it if you listed the labels in the requested order.
a, c, b
(a: 10 nM, c: 120 nM, b: 1500 nM)

---

test system: SK-OV-3; assay: Growth inhibition of human SK-OV-3 cells measured after 48 hrs by sulforhodamine B assay; type: functional
assay.endpoint: GI50 (nM)

Below, 3 molecules whose answers are already recorded.
* CC(C)[C@H]1NC(=O)C[C@H]2/C=C/CCSSC[C@@H](NC1=O)C(=O)N[C@H](C)C(=O)NCC(=O)O2 | 19
* CC(C)[C@H]1NC(=O)C[C@H]2/C=C/CCSSC[C@@H](NC1=O)C(=O)N[C@@H](Cc1ccccc1)C(=O)NCC(=O)O2 | 1200
* CC(C)[C@H]1NC(=O)C[C@H]2/C=C/CCSSC[C@@H](NC1=O)C(=O)N[C@@H](C)C(=O)NCC(=O)O2 | 16000

(I) C/C=C1\NC(=O)[C@H]2CSSCC/C=C/[C@H](CC(=O)N[C@H](C(C)C)C(=O)N2)OC(=O)CNC1=O
(II) CC(C)C[C@@H]1NC(=O)[C@H]2CSSCC/C=C/[C@H](CC(=O)N[C@H](C(C)C)C(=O)N2)OC(=O)CNC1=O
(III) CC(C)[C@H]1NC(=O)C[C@H]2/C=C/CCSSC[C@@H](NC1=O)C(=O)N[C@H](Cc1ccccc1)C(=O)NCC(=O)O2
(IV) CC(C)[C@H]1NC(=O)C[C@H]2/C=C/CCSSC[C@@H](NC1=O)C(=O)NCC(=O)NCC(=O)O2
(V) CC(C)C[C@H]1NC(=O)[C@H]2CSSCC/C=C/[C@H](CC(=O)N[C@H](C(C)C)C(=O)N2)OC(=O)CNC1=O
List from greatest to least GI50. State the ranking by listing the labels in the requested order.
IV, II, I, V, III
(IV: 12000 nM, II: 1500 nM, I: 63 nM, V: 23 nM, III: 2.4 nM)

---

target: Protein deacetylase HDAC6 (Mus musculus); test: Inhibition of mouse HDAC6 expressed in 293T cells using Ac-KGLGK(Ac)-MCA as substrate incubated for 30 mins in presence of 0.1 mM DTT by fluorescence plate reader assay
Sequence (Q9Z2V5 whole entry): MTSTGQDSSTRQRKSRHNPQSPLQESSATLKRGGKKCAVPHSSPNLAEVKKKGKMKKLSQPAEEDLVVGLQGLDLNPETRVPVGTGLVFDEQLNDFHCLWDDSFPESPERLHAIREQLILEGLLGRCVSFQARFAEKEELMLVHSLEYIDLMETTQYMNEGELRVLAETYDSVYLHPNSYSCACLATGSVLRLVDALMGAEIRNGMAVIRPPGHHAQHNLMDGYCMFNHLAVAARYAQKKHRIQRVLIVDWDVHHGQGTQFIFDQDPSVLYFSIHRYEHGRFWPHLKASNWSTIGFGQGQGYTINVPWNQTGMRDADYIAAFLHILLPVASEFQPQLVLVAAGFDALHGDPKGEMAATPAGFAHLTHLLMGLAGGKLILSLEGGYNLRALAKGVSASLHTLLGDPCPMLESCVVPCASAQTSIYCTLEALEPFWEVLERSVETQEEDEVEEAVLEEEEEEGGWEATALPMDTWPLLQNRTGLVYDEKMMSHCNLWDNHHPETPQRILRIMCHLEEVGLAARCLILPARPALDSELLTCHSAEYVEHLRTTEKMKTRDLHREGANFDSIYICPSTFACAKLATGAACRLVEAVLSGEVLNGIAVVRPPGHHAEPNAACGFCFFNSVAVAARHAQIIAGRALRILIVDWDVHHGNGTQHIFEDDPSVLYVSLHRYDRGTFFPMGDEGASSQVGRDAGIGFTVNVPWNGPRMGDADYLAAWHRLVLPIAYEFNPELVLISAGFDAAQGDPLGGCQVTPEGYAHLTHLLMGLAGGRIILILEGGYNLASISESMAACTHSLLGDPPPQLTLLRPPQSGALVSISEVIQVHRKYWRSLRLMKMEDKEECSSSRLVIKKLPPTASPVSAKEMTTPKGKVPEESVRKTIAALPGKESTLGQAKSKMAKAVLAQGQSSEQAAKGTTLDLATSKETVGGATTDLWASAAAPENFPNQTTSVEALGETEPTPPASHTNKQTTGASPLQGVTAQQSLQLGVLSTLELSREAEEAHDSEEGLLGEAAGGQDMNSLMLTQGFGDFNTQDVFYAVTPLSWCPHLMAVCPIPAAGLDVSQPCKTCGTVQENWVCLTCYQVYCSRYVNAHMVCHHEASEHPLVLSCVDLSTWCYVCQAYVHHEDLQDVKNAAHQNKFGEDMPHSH
pIC50: −log10 of the molar value.
assay.endpoint: pIC50

• CC(C)[C@H]1NC(=O)C[C@H]2/C=C/CCSSC[C@@H](NC1=O)C(=O)N[C@H](Cc1ccccc1)C(=O)NCC(=O)O2 = 7.26
• CC(C)[C@H]1NC(=O)C[C@H]2/C=C/CCSSC[C@@H](NC1=O)C(=O)NCC(=O)NCC(=O)O2 = 5.88
• CC(C)C[C@@H]1NC(=O)[C@H]2CSSCC/C=C/[C@H](CC(=O)N[C@H](C(C)C)C(=O)N2)OC(=O)CNC1=O = 5.65
• CC(C)[C@H]1NC(=O)C[C@H]2/C=C/CCSSC[C@@H](NC1=O)C(=O)N[C@@H](Cc1ccccc1)C(=O)NCC(=O)O2 = 6.45

(a) C/C=C1\NC(=O)[C@H]2CSSCC/C=C/[C@H](CC(=O)N[C@H](C(C)C)C(=O)N2)OC(=O)CNC1=O
(b) CC(C)C[C@H]1NC(=O)[C@H]2CSSCC/C=C/[C@H](CC(=O)N[C@H](C(C)C)C(=O)N2)OC(=O)CNC1=O
Which has the smaller recorded pIC50, a or b ? Give the chosen item's label as your response.
b

---

molecular target: Histone deacetylase 1 (Homo sapiens, UniProt Q13547); experiment: Inhibition of human HDAC1 expressed in 293T cells using Ac-KGLGK(Ac)-MCA as substrate incubated for 30 mins in presence of 0.1 mM DTT by fluorescence plate reader assay
Sequence (Q13547 whole entry): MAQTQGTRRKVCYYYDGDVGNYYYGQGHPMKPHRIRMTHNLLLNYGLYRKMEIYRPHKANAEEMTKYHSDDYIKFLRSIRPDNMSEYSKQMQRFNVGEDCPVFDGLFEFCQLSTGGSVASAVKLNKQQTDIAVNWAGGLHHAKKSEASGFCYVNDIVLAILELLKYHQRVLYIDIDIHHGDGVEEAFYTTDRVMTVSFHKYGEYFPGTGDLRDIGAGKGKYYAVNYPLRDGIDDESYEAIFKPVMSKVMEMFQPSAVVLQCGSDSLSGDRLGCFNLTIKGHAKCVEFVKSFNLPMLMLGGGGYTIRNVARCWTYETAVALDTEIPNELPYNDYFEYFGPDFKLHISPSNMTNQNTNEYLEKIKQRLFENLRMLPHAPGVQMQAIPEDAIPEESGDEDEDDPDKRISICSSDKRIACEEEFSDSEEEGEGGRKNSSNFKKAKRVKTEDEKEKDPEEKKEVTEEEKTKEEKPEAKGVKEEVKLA
pIC50: −log10 of the molar value.
assay.endpoint: pIC50

• CC(C)[C@H]1NC(=O)C[C@H]2/C=C/CCSSC[C@@H](NC1=O)C(=O)N[C@H](C)C(=O)NCC(=O)O2 = 8.68

(a) CC(C)[C@H]1NC(=O)C[C@H]2/C=C/CCSSC[C@@H](NC1=O)C(=O)NCC(=O)NCC(=O)O2
(b) CC(C)C[C@@H]1NC(=O)[C@H]2CSSCC/C=C/[C@H](CC(=O)N[C@H](C(C)C)C(=O)N2)OC(=O)CNC1=O
Could you please tell me which of these two has the higher pIC50: a or b ? Give the label under which the chosen entry appears.
b
